Assignment: determine reported pKi for the given compounds.
# experimental-target: ORL-1 receptor (Homo sapiens)
# method-description: Receptor binding studies, radioligand [3H]-AcRYYRWK-NH2
# conditions-used: ORL-1 receptor; radioligand [3H]-AcRYYRWK-NH2; read-out: Binding affinity Ki
Where a name gives a salt, the structure may show the parent alone.
Keep in mind that pKi stands for -log10 of concentration in molar terms.

Task item: Reported pKi, compound NC(=O)Cn1c(-c2ccccc2)c(CN2CCC(c3c(Cl)cccc3Cl)CC2)c2ccccc21 : ____
Reply: 8.49

Task item: Reported pKi, compound Cc1cccc(C)c1C1CCN(Cc2c(C(=O)N3CCC4(CCN(C)C4)C3)[nH]c3ccccc23)CC1 (stereo not shown) : ____
Reply: 8.27

Task item: Reported pKi, compound Cc1cccc(C)c1C1CCN(Cc2c(C(=O)N3C[C@@H]4C[C@H]3CO4)[nH]c3ccccc23)CC1 : ____
Reply: 8.00

Task item: Reported pKi, compound Cc1cccc(C)c1C1CCN(Cc2c(-c3ccccc3)n(CC(=O)NC3CCN(C)CC3)c3ccccc23)CC1 [Example 165, ditrifluoroacetate] : ____
Reply: 8.34

Task item: Reported pKi, compound NC(=O)Cn1c(C(=O)N2CCOCC2)c(CN2CCC(c3c(Cl)cccc3Cl)CC2)c2ccccc21 [Example 150, hydrochloride] : ____
Reply: 8.10

Task item: Reported pKi, compound CN1CCC(NC(=O)Cn2c(C(=O)N3CCOCC3)c(CN3CCC(c4c(Cl)cccc4Cl)CC3)c3ccccc32)CC1 [Example 161, dihydrochloride] : ____
Reply: 8.09

Task item: Reported pKi, compound O=C(c1[nH]c2ccccc2c1CN1CCC(c2c(Cl)cccc2Cl)CC1)N1CCN(CCCO)CC1 : ____
Reply: 8.82

* * *

# experimental-target: ORL-1 receptor (Cavia porcellus, UniProt P47748)
# Construct: evaluated for ORL-1 functional activity in electrically stimulated guinea pig ileum; from tissue; host or cells: guinea pig ileum
# Sequence (P47748 whole entry): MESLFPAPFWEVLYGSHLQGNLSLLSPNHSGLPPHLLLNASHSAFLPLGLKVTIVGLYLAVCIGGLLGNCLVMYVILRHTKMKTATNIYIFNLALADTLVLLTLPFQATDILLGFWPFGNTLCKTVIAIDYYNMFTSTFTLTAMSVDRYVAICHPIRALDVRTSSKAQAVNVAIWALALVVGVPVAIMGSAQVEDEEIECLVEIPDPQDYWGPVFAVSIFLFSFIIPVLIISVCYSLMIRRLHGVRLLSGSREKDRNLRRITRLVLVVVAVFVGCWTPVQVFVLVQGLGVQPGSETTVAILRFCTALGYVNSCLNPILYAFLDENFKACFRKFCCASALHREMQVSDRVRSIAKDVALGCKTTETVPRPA
# method-description: Electrically stimulated guinea pig ileum (GPI) assay
# Format: cell-based
# conditions-used: electrically stimulated guinea pig ileum; against the endogenous ORL-1 agonist N/OFQ; read-out: Antagonist activity (GPI) pKb vs N/OFQ (converted)
Counter-ions that a name gives are not always drawn.
measured-metric: Kb (nM)
Response body: numeric value in nM, unit text excluded.

Task item: Reported Kb, molecule Cc1cccc(C)c1C1CCN(Cc2c(C(=O)N3CCC4(CCN(C)C4)C3)[nH]c3ccccc23)CC1 (centres unmarked) : ____
Reply: 1.23

Task item: Reported Kb, molecule CN1CCC(NC(=O)Cn2c(C(=O)N3CCOCC3)c(CN3CCC(c4c(Cl)cccc4Cl)CC3)c3ccccc32)CC1 [Example 161, dihydrochloride] : ____
Reply: 0.955

Task item: Reported Kb, molecule NC(=O)Cn1c(-c2ccccc2)c(CN2CCC(c3c(Cl)cccc3Cl)CC2)c2ccccc21 : ____
Reply: 2.24

Task item: Reported Kb, molecule Cc1cccc(C)c1C1CCN(Cc2c(C(=O)N3C[C@@H]4C[C@H]3CO4)[nH]c3ccccc23)CC1 : ____
Reply: 1.95

Task item: Reported Kb, molecule O=C(c1[nH]c2ccccc2c1CN1CCC(c2c(Cl)cccc2Cl)CC1)N1CCN(CCCO)CC1 : ____
Reply: 3.02

* * *

# experimental-target: ORL-1 receptor (Homo sapiens, UniProt P41146)
# Sequence (P41146 whole entry): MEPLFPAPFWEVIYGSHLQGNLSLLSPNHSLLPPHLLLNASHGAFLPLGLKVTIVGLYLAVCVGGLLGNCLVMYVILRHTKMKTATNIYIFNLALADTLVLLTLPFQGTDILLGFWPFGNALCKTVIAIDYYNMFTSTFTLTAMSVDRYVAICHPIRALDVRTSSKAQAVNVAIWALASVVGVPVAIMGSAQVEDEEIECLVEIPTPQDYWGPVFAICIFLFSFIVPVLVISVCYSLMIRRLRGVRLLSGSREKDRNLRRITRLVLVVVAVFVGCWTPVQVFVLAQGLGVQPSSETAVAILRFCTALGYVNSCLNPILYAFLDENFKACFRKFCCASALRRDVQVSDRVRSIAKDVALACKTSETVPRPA
# method-description: Receptor binding studies, radioligand [3H]-AcRYYRWK-NH2
Assignment: determine reported pKi for the given compounds.
Keep in mind that pKi stands for -log10 of concentration in molar terms.

Task item: Reported pKi, compound Cc1cccc(C)c1C1CCN(Cc2c(C(=O)N3CCN(CCOCCO)CC3)[nH]c3ccccc23)CC1 : ____
Reply: 8.19

Task item: Reported pKi, compound CN1CCC(NC(=O)Cn2c(-c3ccccc3)c(CN3CCC(c4c(Cl)cccc4Cl)CC3)c3ccccc32)CC1 : ____
Reply: 9.15

* * *

# experimental-target: ORL-1 receptor (Cavia porcellus)
# Construct: evaluated for ORL-1 functional activity in electrically stimulated guinea pig ileum; from tissue; host or cells: guinea pig ileum
# method-description: Electrically stimulated guinea pig ileum (GPI) assay
# Assay type: cell-based
Where a name gives a salt, the structure may show the parent alone.
measured-metric: Kb
A complete answer gives the number followed by the unit.

Task item: Reported Kb, compound Cc1cccc(C)c1C1CCN(Cc2c(C(=O)N3CCN(CCOCCO)CC3)[nH]c3ccccc23)CC1 [Example 97] : ____
Reply: 1 nM

Task item: Reported Kb, compound Cc1cccc(C)c1C1CCN(Cc2c(-c3ccccc3)n(CC(=O)NC3CCN(C)CC3)c3ccccc23)CC1 [Example 165, ditrifluoroacetate] : ____
Reply: 4.17 nM

Task item: Reported Kb, compound NC(=O)Cn1c(C(=O)N2CCOCC2)c(CN2CCC(c3c(Cl)cccc3Cl)CC2)c2ccccc21 [Example 150, hydrochloride] : ____
Reply: 8.91 nM

Task item: Reported Kb, compound CN1CCC(NC(=O)Cn2c(-c3ccccc3)c(CN3CCC(c4c(Cl)cccc4Cl)CC3)c3ccccc32)CC1 [Example 160] : ____
Reply: 1.74 nM
